# System: HBV DNA in HepG2.2.15 cells
# assay.explanation: HBV in vitro dot-blot hybridization test
# Assay type: cell-based, Hepatitis B virus
# condition.details: Hepatitis B virus, HepG2.2.15, dot-blot hybridization assay, read-out: Concentration for 50% inhibition of HBV (EC50)value
Reported EC50 values for a set of compounds

Use the examples below as a reference point.
• CCOC(=O)C1=C2C[C@H](CN3CCC[C@H]3C(=O)OC)CN2C(c2nccs2)=N[C@H]1c1ccc(F)cc1Br = 1000 to 5000 nM
• CCOC(=O)C1=C2CN(Cc3ccc(OC)cc3)S(=O)(=O)CN2C(c2nccs2)=N[C@H]1c1ccc(F)cc1Br = 1000 to 5000 nM
• CCOC(=O)C1=C2C[C@@H](C(N)=O)CN2C(c2nccs2)=NC1c1ccc(F)cc1Br (mixture of isomers) = 100 to 500 nM
• CCOC(=O)C1=C2CC(NS(=O)(=O)C3CC3)CN2C(c2nccs2)=N[C@H]1c1ccc(F)cc1Br (stereo partly shown) [Example 61] = < 100 nM

Problem: Fill in the blank: the reported EC50 of CCOC(=O)C1=C2C[C@H](C(N)=O)CN2C(c2nccs2)=N[C@H]1c1ccc(F)cc1Cl is ____.
Solution: 100 to 500 nM

Problem: For CCOC(=O)C1=C2CN(CC(=O)O)CCN2C(c2nccs2)=N[C@H]1c1ccc(F)cc1Br then?
Solution: 1000 to 5000 nM

Problem: Repeat for the following compound: CCOC(=O)C1=C2CCCN2C(c2nccs2)=NC1c1cccc(F)c1Cl (racemic)
Solution: 100 to 500 nM
